B1: MIA2 (parent)
chain: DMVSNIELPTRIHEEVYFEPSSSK

Variants of: B1
Test: protein stability index of a GFP-peptide fusion (GPS, HEK-293T) (PSI 1-6); higher = more stable;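 note: lentivirally expressed fusions sorted by FACS into six bins by GFP to DsRed ratio, PSI derived from sequencing read proportions per bin multiplied by bin number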
Settings: c terminus: a fixed tail appended
The variants listed here are annotated with their protein stability index.
Give a plain numeric answer without units written out.

Below: 8 variants and their reported protein stability index.
R11S; 4.07
E15G; 3.84
E14H; 3.28
N5D; 4.56
D1E; 3.16
Y17V; 4.3
H13P; 4.32
E14Q; 3.43

Task: Tell me the measured protein stability index of S22Y , please.
Result: 3.08

Task: How about this variant: E14P
Result: 3.16

Task: How about this variant: T10D
Result: 4.74

Task: How about this variant: T10M
Result: 3.81

Task: How about this variant: H13L
Result: 3.99

Task: How about this variant: K24L
Result: 3.84

Task: How about this variant: M2H
Result: 4.48

Task: How about this variant: Y17L
Result: 4.29
